Values compiled from paper PMC4836387.

# Test system: HIV-1 vector carrying IN mutant E92Q
# assay.details: single-round HIV-1 infectivity assay, E92Q IN
# Assay type: cell-based
# experimental.context: in parentheses
result.type: Fold-change (FC) in EC50 relative to WT, E92Q

{"columns": ["compound", "reported.value"],
 "data": [
  ["Nc1c(C(=O)NCc2ccc(F)cc2F)c(=O)n(O)c2ncc(CCCO)cc12", 1.5],
  ["Nc1c(C(=O)NCc2ccc(F)cc2F)c(=O)n(O)c2ncc(CCS(=O)(=O)c3ccccc3)cc12", 0.6],
  ["Nc1c(C(=O)NCc2ccc(F)cc2F)c(=O)n(O)c2ncc(CCCCCCCCO)cc12", 0.70],
  ["COc1cc2c(cc1Cc1cccc(Cl)c1F)c(=O)c(C(=O)O)cn2[C@H](CO)C(C)C [compound 2, elvitegravir, reference compound]", 24],
  ["Nc1c(C(=O)NCc2ccc(F)cc2F)c(=O)n(O)c2ncc(CCCCCCO)cc12", 0.32]
]}

---

# Test system: HIV-1 vector carrying IN mutant E92Q
# assay.details: single-round HIV-1 infectivity assay, E92Q IN
# Format: cell-based
# experimental.context: Human immunodeficiency virus 1, read-out: EC50 E92Q

{"columns": ["compound", "EC50, nM"],
 "data": [
  ["Cc1nnc(C(=O)NC(C)(C)c2nc(C(=O)NCc3ccc(F)cc3)c(O)c(=O)n2C)o1 [compound 1, raltegravir, reference compound]", 30],
  ["Nc1c(C(=O)NCc2ccc(F)cc2F)c(=O)n(O)c2ncc(CCCCCCCCO)cc12", 2.6],
  ["Nc1c(C(=O)NCc2ccc(F)cc2F)c(=O)n(O)c2ncc(CCS(=O)(=O)c3ccccc3)cc12", 1.2],
  ["C[C@@H]1CCO[C@H]2Cn3cc(C(=O)NCc4ccc(F)cc4F)c(=O)c(O)c3C(=O)N12 [compound 3, dolutegravir, reference compound]", 2.3],
  ["Nc1c(C(=O)NCc2ccc(F)cc2F)c(=O)n(O)c2ncc(CCCCCCO)cc12", 0.74],
  ["Nc1c(C(=O)NCc2ccc(F)cc2F)c(=O)n(O)c2ncc(CCCO)cc12", 4.8],
  ["COc1cc2c(cc1Cc1cccc(Cl)c1F)c(=O)c(C(=O)O)cn2[C@H](CO)C(C)C [compound 2, elvitegravir, reference compound]", 154],
  ["Nc1c(C(=O)NCc2ccc(F)cc2F)c(=O)n(O)c2ncc(CCCCCO)cc12", 3.8]
]}

---

# Test system: HIV-1 vector carrying IN mutant R263K
# assay.details: single-round HIV-1 infectivity assay, R263K IN
# Format: cell-based
# experimental.context: in parentheses
Assign labels as follows, please: Satisfied for Fold-change (FC) in EC50 relative to WT, R263K below 2; Not satisfied for Fold-change (FC) in EC50 relative to WT, R263K equal to or exceeding 2.

{"columns": ["molecule", "assigned.label"],
 "data": [
  ["COc1cc2c(cc1Cc1cccc(Cl)c1F)c(=O)c(C(=O)O)cn2[C@H](CO)C(C)C [compound 2, elvitegravir, reference compound]", "Satisfied"],
  ["Nc1c(C(=O)NCc2ccc(F)cc2F)c(=O)n(O)c2ncc(CCCCCCO)cc12 [4d]", "Not satisfied"],
  ["Nc1c(C(=O)NCc2ccc(F)cc2F)c(=O)n(O)c2ncc(CCCCCCCCO)cc12 [4e]", "Satisfied"],
  ["Nc1c(C(=O)NCc2ccc(F)cc2F)c(=O)n(O)c2ncc(CCCO)cc12 [4b]", "Satisfied"]
]}
